pIC50: −log10 of the molar value.
Quick record of pIC50 values for CDK4 (Homo sapiens (Human), UniProt P11802).
property measured: pIC50

>>> test_value("CC(C)N1CCOc2c(F)cc(-c3nc(Nc4ccc(C5CCN(C)C5)cn4)ncc3F)cc21 (stereo not drawn)")
9.00
>>> test_value("CN1CCC(c2ccc(Nc3ncc(F)c(-c4cc(F)c5c(c4)N(C4CCCC4)CCO5)n3)cc2F)CC1")
8.00
>>> test_value("CC(C)CN1CCOc2c(F)cc(-c3nc(Nc4ccc(N5CCC(N(C)C)CC5)c(F)c4)ncc3F)cc21")
8.26
>>> test_value("Fc1cnc(Nc2ccc3c(n2)CCNC3)nc1-c1cc(F)c2c(c1)N(C1CCC1)CCO2")
8.52
>>> test_value("CC(C)N1CCOc2c(F)cc(-c3nc(Nc4ccc(CN5CCN(C)CC5)c(F)c4)ncc3F)cc21")
8.40
>>> test_value("CCCN1CCOc2c(F)cc(-c3nc(Nc4ccc(N5CCC(N(C)C)CC5)c(F)c4)ncc3F)cc21")
8.10
